# Tested on: MCF-7
# test: MTT cell viability assay, MCF-7
# Format: cell-based
# conditionSummary: Homo sapiens, MCF7; MTT, 72-hour incubation; read-out: IC50/μM MCF-7
experimentalEndpoint: IC50 (µM)
Answer in µM, number only, no unit symbol.

For the molecule shown here, `CCn1c(=O)/c(=C2\Sc3cc(OC)ccc3N2C)s/c1=C\c1scc[n+]1CCc1ccc(C(F)(F)F)cc1` , give the reported IC50.
0.51

For `CCn1c(=O)/c(=C2\Sc3cc(F)ccc3N2C)s/c1=C\c1scc[n+]1Cc1ccccc1CO` then?
1.08

For `CCn1c(=O)/c(=C2\Sc3cc(F)ccc3N2C)s/c1=C\c1scc[n+]1Cc1cccc(Cl)c1` then?
0.36

For `CCn1c(=O)/c(=C2\Sc3cc(SC)ccc3N2C)s/c1=C\c1scc[n+]1Cc1ccc(C(F)(F)F)o1` then?
0.57

* * *

Field: IC50. Provide a value for each of the compounds that follow.
# System: MCF-7
# test: MTT cell viability assay, MCF-7
# Type: cell-based
# conditionSummary: Homo sapiens, MCF7; MTT, 72-hour incubation; read-out: IC50/μM MCF-7
Answer in µM, number only, no unit symbol.

For the compound shown here, `CCn1c(=O)/c(=C2\Sc3cc(Cl)ccc3N2C)s/c1=C\c1scc[n+]1CCc1ccccc1OC` , give the reported IC50.
0.86

For `CCn1c(=O)/c(=C2\Sc3cc(C)ccc3N2C)s/c1=C\c1scc[n+]1Cc1ccccc1C` then?
0.09

For `CCn1c(=O)/c(=C2\Sc3cc(Cl)ccc3N2C)s/c1=C\c1scc[n+]1CCc1cccc(C(F)(F)F)c1` then?
0.78

* * *

# System: MCF-7
# test: MTT cell viability assay, MCF-7
# Format: cell-based
# conditionSummary: Homo sapiens, MCF7; MTT, 72-hour incubation; read-out: IC50/μM MCF-7
experimentalEndpoint: IC50 (µM)
Answer in µM, number only, no unit symbol.

For the compound shown here, `CCn1c(=O)/c(=C2\Sc3cc(C)ccc3N2C)s/c1=C\c1scc[n+]1CCc1ccc(Cl)cc1` , give the reported IC50.
0.53

For `CCn1c(=O)/c(=C2\Sc3cc(Cl)ccc3N2C)s/c1=C\c1scc[n+]1Cc1ccccc1OC(C)=O` then?
1.58

For `C=CCn1c(=O)/c(=C2\Sc3cc(C)ccc3N2C)s/c1=C\c1scc[n+]1Cc1ccccc1` then?
0.15

For `CCn1c(=O)/c(=C2\Sc3cc(C)ccc3N2C)s/c1=C\c1scc[n+]1Cc1ccccc1C(=O)OC` then?
0.16

* * *

Field: IC50. Provide a value for each of the compounds that follow.
# Tested on: MCF-7
# test: MTT cell viability assay, MCF-7
# Format: cell-based
# conditionSummary: Homo sapiens, MCF7; MTT, 72-hour incubation; read-out: IC50/μM MCF-7
Answer in µM, number only, no unit symbol.

Observed IC50 on MCF-7 for `CCn1c(=O)/c(=C2\Sc3cc(F)ccc3N2C)s/c1=C\c1scc[n+]1Cc1c(C)cccc1C` , please.
0.32

For `CCc1ccc2c(c1)S/C(=c1/s/c(=C\c3scc[n+]3Cc3ccccc3OC)n(CC)c1=O)N2C` then?
0.11

For `CCn1c(=O)/c(=C2\Sc3cc(SC)ccc3N2C)s/c1=C\c1scc[n+]1Cc1ccccc1OC(F)(F)F.[Cl-]` then?
0.098

For `CCn1c(=O)/c(=C2\Sc3cc(C)ccc3N2C)s/c1=C\c1scc[n+]1Cc1ccsc1` then?
0.14

For `CN1/C(=c2\s/c(=C\c3scc[n+]3Cc3ccccc3)n(C)c2=O)Sc2cc(F)cc(F)c21` then?
0.29

For `CCn1c(=O)/c(=C2\Sc3cc(Cl)ccc3N2C)s/c1=C\c1scc[n+]1Cc1ccccc1Br` then?
0.12

For `CCn1c(=O)/c(=C2\Sc3cc(Br)ccc3N2C)s/c1=C\c1scc[n+]1Cc1ccccc1C(F)(F)F` then?
0.12

* * *

Field: IC50. Provide a value for each of the molecules that follow.
# Test system: MCF-7
# test: MTT cell viability assay, MCF-7
# Type: cell-based
# conditionSummary: Homo sapiens, MCF7; MTT, 72-hour incubation; read-out: IC50/μM MCF-7
# Procedure: Cells were then treated with compound at various concentrations in 0.2 mL media. After the 72-hour incubation period, cells were washed in PBS (3×100 μL), and 10 μL MTT reagent was added with 100 μL fresh media. Cells were then incubated for 4 hr in a humidified chamber at 37° C. with 5% CO2. Insoluble formazan crystals were solubilized by addition of 0.1 mL detergent solution (4 hr at room temp., dark). Resulting colored solutions were then quantified at an absorbance of 570 nm.

For the molecule shown here, `CCn1c(=O)/c(=C2\Sc3cc(SC)ccc3N2C)s/c1=C\c1scc[n+]1Cc1ccccc1C(=O)OC` , give the reported IC50.
0.25 µM

For `CCn1c(=O)/c(=C2\Sc3ccc(OC)cc3N2C)s/c1=C\c1scc[n+]1Cc1ccsc1C(=O)OC` then?
0.45 µM

For `CCn1c(=O)/c(=C2\Sc3cc(F)ccc3N2C)s/c1=C\c1scc[n+]1Cc1nc(C)sc1C` then?
0.27 µM

For `CCn1c(=O)/c(=C2\Sc3cc(OC)ccc3N2C)s/c1=C\c1scc[n+]1Cc1ccccc1C(F)(F)F` then?
0.12 µM

For `CCn1c(=O)/c(=C2\Sc3cc(OC)ccc3N2C)s/c1=C\c1scc[n+]1Cc1ccccc1C` then?
0.12 µM

For `CCn1c(=O)/c(=C2\Sc3ccc(OC)cc3N2C)s/c1=C\c1scc[n+]1Cc1ccccc1SC(F)(F)F` then?
0.2 µM

For `CCn1c(=O)/c(=C2\Sc3cc(SC)ccc3N2C)s/c1=C\c1scc[n+]1Cc1ccsc1C(=O)OC` then?
0.2 µM

For `CCn1c(=O)/c(=C2\Sc3cc(F)ccc3N2C)s/c1=C\c1scc[n+]1Cc1ccccc1C(=O)OC` then?
0.22 µM

* * *

# System: MCF-7
# test: MTT cell viability assay, MCF-7
# Format: cell-based
# conditionSummary: Homo sapiens, MCF7; MTT, 72-hour incubation; read-out: IC50/μM MCF-7
Field: IC50. Provide a value for each of the molecules that follow.
Give me the value, and tack the unit on after it.

For the molecule shown here, `CCn1c(=O)/c(=C2\Sc3cc(OC)ccc3N2C)s/c1=C\c1scc[n+]1CCc1ccccc1C(F)(F)F` , give the reported IC50.
0.12 µM

For CCc1ccc2c(c1)S/C(=c1/s/c(=C\c3scc[n+]3C(C)c3ccccc3)n(CC)c1=O)N2C (stereo not drawn) then?
0.1 µM

For `CN1/C(=c2\s/c(=C\c3scc[n+]3Cc3ccccc3)n(C)c2=O)Sc2ccccc21` then?
0.39 µM

For `CCn1c(=O)/c(=C2\Sc3cc(C)ccc3N2C)s/c1=C\c1scc[n+]1Cc1c(Cl)cccc1Cl` then?
0.069 µM

For `CCn1c(=O)/c(=C2\Sc3ccc(C)cc3N2C)s/c1=C\c1scc[n+]1Cc1ccsc1C(=O)OC` then?
0.063 µM

For `CCn1c(=O)/c(=C2\Sc3cc(SC)ccc3N2C)s/c1=C\c1scc[n+]1Cc1ccccc1C(F)(F)F.[Cl-]` then?
0.1 µM

For `CCn1c(=O)/c(=C2\Sc3cc(OC)ccc3N2C)s/c1=C\c1scc[n+]1Cc1ccccc1C(=O)OC` then?
0.14 µM

For `CCn1c(=O)/c(=C2\Sc3cc(Cl)ccc3N2C)s/c1=C\c1scc[n+]1Cc1ccc(Cl)cc1` then?
0.72 µM

For `CCn1c(=O)/c(=C2\Sc3ccc(C)cc3N2C)s/c1=C\c1scc[n+]1Cc1ccccc1Br` then?
0.12 µM

For `CCn1c(=O)/c(=C2\Sc3cc(C)ccc3N2C)s/c1=C\c1scc[n+]1Cc1ccc(C(F)(F)F)o1` then?
0.27 µM

For `CCc1ccc2c(c1)S/C(=c1/s/c(=C\c3scc[n+]3Cc3ccccc3SC(F)(F)F)n(CC)c1=O)N2C` then?
0.087 µM

For `CCn1c(=O)/c(=C2\Sc3cc(Cl)ccc3N2C)s/c1=C\c1scc[n+]1Cc1ccccc1S(C)(=O)=O` then?
1.73 µM

* * *

# System: MCF-7
# test: MTT cell viability assay, MCF-7
# Format: cell-based
# conditionSummary: Homo sapiens, MCF7; MTT, 72-hour incubation; read-out: IC50/μM MCF-7
experimentalEndpoint: IC50 (µM)
Answer in µM, number only, no unit symbol.

For the compound shown here, CCn1c(=O)/c(=C2\Sc3cc(SC)ccc3N2C)s/c1=C\c1scc[n+]1Cc1ccccc1OC [JG-358] , give the reported IC50.
0.22

For CCn1c(=O)/c(=C2\Sc3ccc(C)cc3N2C)s/c1=C\c1scc[n+]1Cc1occc1C(=O)OC [JG-370] then?
0.22
